Biological target: Bacillus thuringiensis (Bt) Cry1Ac toxin (Bacillus thuringiensis, UniProt P05068 1-1178)
Sequence (P05068 whole entry): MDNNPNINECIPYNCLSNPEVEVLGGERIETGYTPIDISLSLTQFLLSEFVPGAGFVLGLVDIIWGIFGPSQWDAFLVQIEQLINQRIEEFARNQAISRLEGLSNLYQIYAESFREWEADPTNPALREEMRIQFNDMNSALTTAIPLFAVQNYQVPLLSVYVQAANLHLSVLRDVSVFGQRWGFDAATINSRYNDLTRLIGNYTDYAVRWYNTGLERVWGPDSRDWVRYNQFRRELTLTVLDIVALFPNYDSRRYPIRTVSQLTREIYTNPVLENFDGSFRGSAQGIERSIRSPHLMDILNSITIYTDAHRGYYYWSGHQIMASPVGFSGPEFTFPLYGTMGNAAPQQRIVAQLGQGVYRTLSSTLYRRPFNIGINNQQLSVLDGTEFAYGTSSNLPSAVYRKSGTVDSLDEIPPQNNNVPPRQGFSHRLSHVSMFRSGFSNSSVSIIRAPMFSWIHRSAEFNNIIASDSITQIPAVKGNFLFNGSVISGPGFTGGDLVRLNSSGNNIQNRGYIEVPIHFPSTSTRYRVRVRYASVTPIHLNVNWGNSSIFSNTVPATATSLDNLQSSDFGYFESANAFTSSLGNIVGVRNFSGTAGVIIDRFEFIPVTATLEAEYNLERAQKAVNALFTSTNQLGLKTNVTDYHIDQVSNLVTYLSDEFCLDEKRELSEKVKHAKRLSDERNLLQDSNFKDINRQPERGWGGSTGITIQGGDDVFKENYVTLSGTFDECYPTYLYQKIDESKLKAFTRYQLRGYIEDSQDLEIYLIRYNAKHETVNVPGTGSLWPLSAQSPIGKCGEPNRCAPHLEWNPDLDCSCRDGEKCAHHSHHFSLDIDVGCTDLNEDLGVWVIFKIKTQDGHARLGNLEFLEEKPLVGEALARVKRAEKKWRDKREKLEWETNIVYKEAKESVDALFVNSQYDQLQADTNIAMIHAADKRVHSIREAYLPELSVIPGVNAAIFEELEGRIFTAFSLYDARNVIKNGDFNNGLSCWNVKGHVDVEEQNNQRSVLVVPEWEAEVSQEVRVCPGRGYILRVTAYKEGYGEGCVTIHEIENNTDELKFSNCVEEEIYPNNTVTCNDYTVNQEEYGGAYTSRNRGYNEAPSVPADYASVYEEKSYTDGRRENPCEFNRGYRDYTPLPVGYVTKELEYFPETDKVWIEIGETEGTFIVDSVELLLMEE
Assay: SPR
Entries annotated with measured koff
Give the value, in units of s⁻¹, as a plain number.

Observe how each entry below is paired with its result.
[[record]]
binder = "anti-Cry1Ac nanobody Nb44 (VHH) VHH: QVQLQESGGGSVQAGGSLRLSCATSGLTYSARITWFRQAPEKEREGVATFSTGSGSTGYADSVKGRFTISQDNAKNTLYLQMNNLKPEDTAMYYCAADTSTSWRDIVLVARYKYWGQGTQVTVSS"
endpoint_value = 0.0014

[[record]]
binder = "anti-Cry1Ac nanobody Nb58 (VHH) VHH: QVQLQESGGGLVQPGGSLRLSCTASGFTFSSYEMDWFRRAPGKELEWVAGITSGGEGTSYRNSVKGRFTISRDNAKNTLYLHLNSLKNEDTAMYYCAKDRRALGEVGQGTQVTVSS"
endpoint_value = 0.00151

[[record]]
binder = "anti-Cry1Ac nanobody Nb59 (VHH) VHH: QVQLQESGGGLVQPGGSLRLSCAASGFTFRDYYMTWVRQAPGQGLEWVSSISFGGGRTYYADSVKGRFTISRDNPENTLYLQLSNLKTEDTAMYYCARGRPNADYDRRGQGTQVTVSS"
endpoint_value = 0.00178


Moving on to the next binder.
Exercise: Given the entry anti-Cry1Ac nanobody Nb61 (VHH) VHH: QVQLQESGGGSVQAGGSLRLSCEASENTYNSVYMAWFRQAPEKEREGVAVLSTGGGRTYYTDSVKGRFTISRDNAKNMVYLQMNSLKPDDTAMYYCAATYTGDSYGPSLYYLTPGRYEYWGQGTQVTVSS , report its measured koff.
Key: 0.00084
